Listed below: cytotoxicity values for each entry.
runDescription: Cytotoxicity used for the adenovirus selectivity index
Assay type: cell-based
assayContext: human; IOBA-NHC

Data request: Identify measured cytotoxicity corresponding to CC[C@@H](C(C)C)[C@H](O)[C@@H](O)[C@@H](C)[C@H]1CC[C@H]2[C@@H]3CCC4=CC(=O)C=C[C@]4(C)[C@H]3CC[C@]12C
Data returned: 4

Pending molecule:
Data request: Identify measured cytotoxicity corresponding to CC[C@@H](C(C)C)[C@H](O)[C@@H](O)[C@@H](C)[C@H]1CC[C@H]2[C@@H]3CCC4=CC(=O)CC[C@]4(C)[C@H]3CC[C@]12C
Data returned: 2

----------
System: strain KOS of HSV-1
runDescription: Anti-HSV-1 activity, virus yield in infected IOBA-NHC cells titrated in Vero cells
Assay type: cell-based
assayContext: Human alphaherpesvirus 1, Vero; HSV-1 KOS, m.i. 0.2, IOBA-NHC cells, 24 h; read-out: CE50 (Effective concentration 50)
measuredMetric: EC50 (µM)
Your answer should be a plain number; it is taken to be in µM.

Data request: Identify measured EC50 corresponding to CC[C@@H](C(C)C)[C@H](O)[C@@H](O)[C@@H](C)[C@H]1CC[C@H]2[C@@H]3CCC4=CC(=O)C=C[C@]4(C)[C@H]3CC[C@]12C
Data returned: 17.9

Next:
Data request: Identify measured EC50 corresponding to CC[C@@H](C(C)C)[C@H](O)[C@@H](O)[C@@H](C)[C@H]1CC[C@H]2[C@@H]3CCC4=CC(=O)CC[C@]4(C)[C@H]3CC[C@]12C
Data returned: 5.4

----------
runDescription: Cytotoxicity, colorimetric MTT assay in IOBA-NHC cells
Format: cell-based
assayContext: human, IOBA-NHC human conjunctival cells, confluent monolayers, 24 hours at 37° C., read-out: CC50 (Cytotoxyc concentration 50)
measuredMetric: CC50 at 24 h (µM)
Your answer should be a plain number; it is taken to be in µM.

Data request: Identify measured CC50 at 24 h corresponding to CC[C@@H](C(C)C)[C@H](O)[C@@H](O)[C@@H](C)[C@H]1CC[C@H]2[C@@H]3CCC4=CC(=O)C=C[C@]4(C)[C@H]3CC[C@]12C
Data returned: 70.8

Pending compound:
Data request: Identify measured CC50 at 24 h corresponding to CC[C@@H](C(C)C)[C@H](O)[C@@H](O)[C@@H](C)[C@H]1CC[C@H]2[C@@H]3CCC4=CC(=O)CC[C@]4(C)[C@H]3CC[C@]12C
Data returned: 71.2
